Measured On: Cell-associated proTGFβ1 complexes (hGARP-proTGFβ1 and hLRRC33-proTGFβ1)
Assay Overview: MSD-SET, hIgG4
# maps each entry to its Cell AVRG (average KD, hGARP and hLRRC33 complexes)
Measure: Cell AVRG (average KD, hGARP and hLRRC33 complexes) (pM)

Binder	Result Number
Ab32 (antibody, IgG4, V domains shown) VH: EVQLVESGGGLVQPGGSLRLSCAASGFTFSSFSMNWVRQAPGKGLEWVSYISPSADTIYYADSVKGRFTISRDNAKNTLYLQMNSLRAEDTAVYYCARGVWDMGDMLDPWGQGTLVTVSS VL: DIQMTQSPSSLSASVGDRVTITCQASQDITNYLNWYQQKPGKAPKLLIYDASNLETGVPSRFSGSGSGTDFTFTISSLQPEDIATYYCQQADNHPPWTFGGGTKVEIK	51
Ab29 (antibody, IgG4, V domains shown) VH: EVQLVESGGGLVQPGRSLRLSCAASGFTFSSFAMNWVRQAPGKGLEWVSYISPDASTIYYAGSVKGRFTISRDNAKNSLYLQMNSLRAEDTAVYYCVRAVLDYGDMLDPWGQGTLVTVSS VL: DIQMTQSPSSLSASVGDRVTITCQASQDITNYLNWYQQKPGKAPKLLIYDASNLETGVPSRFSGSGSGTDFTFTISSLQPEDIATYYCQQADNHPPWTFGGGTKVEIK	24
Ab24 (antibody, IgG4, V domains shown) VH: EVQLVESGGGLVQPGRSLRLSCAASGFTFSSFAMYWVRQAPGKGLEWVSYISPDASTIYYADSVKGRFTISRDNAKNSLYLQMNSLRAEDTAVYYCARGVLDYGDMLDPWGQGTLVTVSS VL: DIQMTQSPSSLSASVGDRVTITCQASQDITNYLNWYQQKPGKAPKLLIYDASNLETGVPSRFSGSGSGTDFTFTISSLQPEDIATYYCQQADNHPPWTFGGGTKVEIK	100
